From: patent US20210246204A1

biological target: T1, histidine-tagged human Siglec-7 (NovoProtein) (human, UniProt Q9Y286 19-353); experiment: BLI, antibody captured
T1 construct: Bought protein; also called recombinant human Siglec-7; recombinant Siglec-7; not shown: histidine tag
T1 sequence (Q9Y286 19-353 limits assumed): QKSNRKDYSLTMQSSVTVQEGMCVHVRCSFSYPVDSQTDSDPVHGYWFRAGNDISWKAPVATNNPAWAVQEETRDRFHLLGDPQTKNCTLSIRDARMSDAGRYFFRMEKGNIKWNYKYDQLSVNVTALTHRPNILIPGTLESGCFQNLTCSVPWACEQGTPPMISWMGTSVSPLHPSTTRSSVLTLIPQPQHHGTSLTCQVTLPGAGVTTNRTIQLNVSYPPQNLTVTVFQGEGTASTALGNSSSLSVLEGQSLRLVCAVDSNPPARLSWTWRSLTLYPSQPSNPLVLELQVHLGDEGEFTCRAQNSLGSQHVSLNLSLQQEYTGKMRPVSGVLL
ENDPOINT: fold improvement over S7AB-H8 (fold)
One number for each entry, in fold.

Use these answered entries as a reference point.
Sure, the documented fold improvement over S7AB-H8 for S7AB-H8.29 (antibody, V domains shown) VH: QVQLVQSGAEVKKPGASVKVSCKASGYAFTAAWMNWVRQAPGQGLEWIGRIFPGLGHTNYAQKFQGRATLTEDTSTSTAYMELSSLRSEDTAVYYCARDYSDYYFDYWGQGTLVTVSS VL: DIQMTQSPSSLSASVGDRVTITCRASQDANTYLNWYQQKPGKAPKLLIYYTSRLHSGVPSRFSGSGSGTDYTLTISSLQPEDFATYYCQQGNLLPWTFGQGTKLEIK is 4

Sure, the documented fold improvement over S7AB-H8 for S7AB-H8.30 (antibody, V domains shown) VH: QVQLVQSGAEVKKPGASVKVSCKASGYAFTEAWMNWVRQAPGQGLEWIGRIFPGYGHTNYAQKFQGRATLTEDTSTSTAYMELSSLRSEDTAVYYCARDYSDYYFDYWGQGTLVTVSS VL: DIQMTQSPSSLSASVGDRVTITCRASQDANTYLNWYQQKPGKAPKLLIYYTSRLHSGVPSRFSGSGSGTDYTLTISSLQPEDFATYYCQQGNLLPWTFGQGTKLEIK is 2.7

Continue with the binder presented below.
Sure, the documented fold improvement over S7AB-H8 for S7AB-H8.11 (antibody, V domains shown) VH: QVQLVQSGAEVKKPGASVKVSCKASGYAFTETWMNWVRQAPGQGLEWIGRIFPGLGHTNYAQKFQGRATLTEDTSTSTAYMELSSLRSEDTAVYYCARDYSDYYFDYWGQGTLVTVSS VL: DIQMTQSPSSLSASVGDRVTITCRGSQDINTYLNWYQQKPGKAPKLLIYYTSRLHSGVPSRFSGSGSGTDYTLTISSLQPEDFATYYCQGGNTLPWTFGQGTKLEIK is 0.01
